From: patent US10172859B2

Target: Kv11.1 (hERG) channel (Homo sapiens (Human))
Sequence (Q12809 whole entry): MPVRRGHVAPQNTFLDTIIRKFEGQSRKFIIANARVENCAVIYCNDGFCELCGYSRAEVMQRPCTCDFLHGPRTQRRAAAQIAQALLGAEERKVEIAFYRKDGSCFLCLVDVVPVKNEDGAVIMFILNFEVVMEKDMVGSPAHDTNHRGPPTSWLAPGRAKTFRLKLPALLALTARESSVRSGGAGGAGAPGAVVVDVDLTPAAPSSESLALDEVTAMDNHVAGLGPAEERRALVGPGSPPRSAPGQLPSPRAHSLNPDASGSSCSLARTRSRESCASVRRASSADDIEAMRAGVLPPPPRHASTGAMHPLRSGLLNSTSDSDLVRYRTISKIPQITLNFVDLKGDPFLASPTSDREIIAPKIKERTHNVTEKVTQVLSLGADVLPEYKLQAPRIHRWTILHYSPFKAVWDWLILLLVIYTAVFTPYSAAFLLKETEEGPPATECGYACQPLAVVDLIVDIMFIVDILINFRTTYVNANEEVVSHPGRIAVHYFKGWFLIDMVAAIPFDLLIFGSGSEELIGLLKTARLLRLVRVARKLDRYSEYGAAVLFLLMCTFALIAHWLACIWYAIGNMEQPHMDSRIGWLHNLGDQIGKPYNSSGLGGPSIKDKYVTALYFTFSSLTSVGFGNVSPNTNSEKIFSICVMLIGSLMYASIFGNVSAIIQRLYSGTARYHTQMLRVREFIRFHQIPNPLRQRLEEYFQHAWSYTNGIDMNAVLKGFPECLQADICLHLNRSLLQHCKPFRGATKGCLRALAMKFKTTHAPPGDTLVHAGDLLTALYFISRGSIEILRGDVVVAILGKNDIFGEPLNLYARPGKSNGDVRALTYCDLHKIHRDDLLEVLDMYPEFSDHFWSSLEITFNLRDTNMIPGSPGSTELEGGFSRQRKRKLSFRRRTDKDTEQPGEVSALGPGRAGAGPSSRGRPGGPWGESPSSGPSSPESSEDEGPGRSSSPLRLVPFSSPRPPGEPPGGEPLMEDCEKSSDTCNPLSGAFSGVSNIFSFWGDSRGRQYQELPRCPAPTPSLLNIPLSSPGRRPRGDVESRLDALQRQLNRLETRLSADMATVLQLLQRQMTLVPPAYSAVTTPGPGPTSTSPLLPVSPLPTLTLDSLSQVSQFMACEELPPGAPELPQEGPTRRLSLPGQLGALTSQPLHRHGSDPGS
Experiment: Kv11.1 (hERG) ion channel activity (patch clamp assay)
Details: read-out: Ki [Kv1.11 hERG]; HEK293 transfected with hERG gene, whole-cell
Readout label: Ki

Problem: Could you please provide reported Ki for COc1nnc(Cl)cc1C(O)c1ccc(F)c(-c2ncnc3cc(N4CCOCC4)ccc23)c1 (stereo not shown) [Example 9] ? Thanks!
Result: < 10 µM

====

Molecular target: DNA-PK/protein complex (Homo sapiens (Human))
Test: DNA-PK assay (biochemical), flashplate kinase assay
Settings: biochemical DNA-PK assay
Readout label: IC50

Problem: Could you please provide reported IC50 for COc1nccnc1C(C(N)=O)c1cc(-c2ncnc3cc(N4CCOCC4)ccc23)ccc1F (stereo not shown) ? Thanks!
Result: > 0.03 µM

====

Molecular target: phospho-serine 2056 DNA-PK in HCT116 cells (Homo sapiens (Human))
Test: DNA-PK phosphorylation at serine 2056 (cellular), ELISA in bleomycin-treated HCT116 cells
Type: cell-based
Details: cellular, HCT116, 10 μM bleomycin, six hours; read-out: IC50 pDNA-PK
Reported IC50 values follow for various compounds

# Compound, Tested target, IC50
records = [
    ("Cn1nccc1C(O)c1ccc(F)c(-c2nc(Cl)nc3cc(N4CCOCC4)ccc23)c1 (centres unmarked)", "phospho-serine 2056 DNA-PK in HCT116 cells (Homo sapiens (Human))", "10 to 30 µM"),
]

Problem: Could you please provide reported IC50 for COc1nnc(Cl)cc1C(O)c1ccc(F)c(-c2ncnc3cc(N4CCOCC4)ccc23)c1 (centres unmarked) ? Thanks!
Result: < 0.5 µM

====

Molecular target: Kv11.1 (hERG) channel (Homo sapiens (Human))
pKi: −log10 of the molar value.
Readout label: pKi

Problem: Give pKi; test system Kv11.1 (hERG) channel (Homo sapiens (Human)); molecule CCNCc1csc(C(O)c2cc(-c3ncnc4cc(N5CCOCC5)ccc34)c(F)cc2Cl)n1 (stereo not shown)
Result: 4.60 to 4.82

====

Target: Kv11.1 (hERG) channel (Homo sapiens (Human))
Assay: Kv11.1 (hERG) ion channel activity (patch clamp assay)
Details: read-out: Ki [Kv1.11 hERG]; hERG patch clamp assay
Readout label: Ki

Problem: Could you please provide reported Ki for OC(c1ccc(F)c(-c2ncnc3cc(N4CCOCC4)ccc23)c1)c1nccnc1I (stereo not shown) ? Thanks!
Result: 15 to 25 µM

====

Molecular target: Kv11.1 (hERG) channel (Homo sapiens (Human))
Experiment: Kv11.1 (hERG) ion channel activity (patch clamp assay)
Readout label: Ki

# Compound, Ki
measured = [
    ("Cn1nccc1C(O)c1ccc(F)c(-c2nc(Cl)nc3cc(N4CCOCC4)ccc23)c1 (centres unmarked)", "15 to 25 µM"),
]

We next turn to a different compound, shown below.
Problem: Could you please provide reported Ki for COc1nccnc1C(C(N)=O)c1cc(-c2ncnc3cc(N4CCOCC4)ccc23)ccc1F (centres unmarked) ? Thanks!
Result: 15 to 25 µM
